pIC50: −log10 of the molar value.
The reader will find pIC50 measurements below, all made with 3',5'-cyclic-AMP phosphodiesterase 4C (Homo sapiens, UniProt Q08493).
Sequence (Q08493 whole entry): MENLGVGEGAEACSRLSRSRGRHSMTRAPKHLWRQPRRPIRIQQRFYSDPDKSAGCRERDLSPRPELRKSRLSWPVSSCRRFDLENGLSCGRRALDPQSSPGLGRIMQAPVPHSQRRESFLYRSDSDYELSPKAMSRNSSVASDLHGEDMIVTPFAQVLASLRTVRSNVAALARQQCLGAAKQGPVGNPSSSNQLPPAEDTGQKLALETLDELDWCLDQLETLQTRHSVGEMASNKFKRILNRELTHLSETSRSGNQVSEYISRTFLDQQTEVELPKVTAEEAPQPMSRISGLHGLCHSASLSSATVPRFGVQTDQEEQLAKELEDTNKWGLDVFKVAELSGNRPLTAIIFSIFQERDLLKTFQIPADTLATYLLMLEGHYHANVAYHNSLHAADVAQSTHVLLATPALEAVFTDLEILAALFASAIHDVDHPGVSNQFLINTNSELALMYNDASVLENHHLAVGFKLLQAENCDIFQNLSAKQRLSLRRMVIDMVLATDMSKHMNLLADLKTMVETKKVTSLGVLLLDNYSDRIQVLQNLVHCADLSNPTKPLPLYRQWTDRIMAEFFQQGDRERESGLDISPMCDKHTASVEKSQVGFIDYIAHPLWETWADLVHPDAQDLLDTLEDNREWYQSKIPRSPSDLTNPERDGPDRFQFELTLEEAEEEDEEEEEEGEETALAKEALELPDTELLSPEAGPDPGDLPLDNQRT
quantity.measured: pIC50

smiles.repr	readout.number
CCOc1cc([C@H](CS(C)(=O)=O)N2C(=O)c3cccc(NC(=O)OCCOCCOCCOCCOCCOCCOCCOCCOC)c3C2=O)ccc1OC	8.52
CCOc1cc([C@H](CS(C)(=O)=O)N2C(=O)c3cccc(NC(=O)OCCOCCOCCOCCOCCOCCOCCOC)c3C2=O)ccc1OC	8.52
CCOc1cc([C@H](CS(C)(=O)=O)N2C(=O)c3cccc(NC(=O)OCCOCCOCCOC)c3C2=O)ccc1OC	8.52
